# Test system: SN12C
# protocolSummary: NCI tumour cell line growth inhibition, 48 h
Active and inactive are the calls of the source. Rule as the data show it: active = GI50 up to about 1.1 µM and inactive = higher.
observedProperty: GI50

[[record]]
recordsmiles = "c1ccc(-c2nnc(-c3ccccn3)c3c2C[C@@H]2C[C@@H]4Cc5c(-c6ccccn6)nnc(-c6ccccn6)c5[C@@H]4[C@H]32)nc1"
endpointresult = "48.8 µM (inactive)"

[[record]]
recordsmiles = "O=P1(O)c2ccccc2Nc2cc(C(F)(F)F)ccc21"
endpointresult = "> 100 µM (inactive)"

[[record]]
recordsmiles = "CC1=C(C(=O)NNC(=O)C(N)=O)CC(C(=O)NNC(=O)C(N)=O)=C(C)N1"
endpointresult = "> 100 µM (inactive)"

[[record]]
recordsmiles = "Cc1ccc(S(=O)(=O)n2cc(-c3cc(C(F)(F)F)ccn3)c3cc(Br)ccc32)cc1"
endpointresult = "28.3 µM (inactive)"

[[record]]
recordsmiles = "S=C(Nc1cc(Cl)c(Cl)cc1Cl)SCc1ccccc1"
endpointresult = "> 100 µM (inactive)"


----------
# System: SK-MEL-2
# protocolSummary: NCI tumour cell line growth inhibition, 48 h
The source made the active and inactive calls. No stated cut-off is given here; in the data, active = GI50 up to about 1.1 µM and inactive = higher.
The molecules listed here are annotated with their GI50.
observedProperty: GI50

[[record]]
molecule = "COc1cc2c(cc1OC)-c1[nH]c3ccc([N+](=O)[O-])cc3c1CC(=O)N2"
endpointresult = "3.7 µM (inactive)"

[[record]]
molecule = "Oc1cccc(-c2ccc3c4c2O[C@H]2c5[nH]c6ccccc6c5C[C@@]5(O)[C@@H](C3)N(CC3CC3)CC[C@]425)c1"
endpointresult = "2.46 µM (inactive)"

[[record]]
molecule = "CN(CC(=O)O)c1ncc2c(n1)-c1ccccc1SC2"
endpointresult = "> 100 µM (inactive)"

[[record]]
molecule = "O=C(Nc1cc(Cl)ccc1Cl)c1cc2cccc(Br)c2oc1=O"
endpointresult = "> 100 µM (inactive)"

[[record]]
molecule = "COC(=O)C(Cc1nc2ccccc2nc1O)C(=O)C(=O)Nc1ccc(F)cc1 (stereo not given)"
endpointresult = "34.4 µM (inactive)"

[[record]]
molecule = "Cc1cc(Cl)ccc1NC(=O)C(=O)Cc1nc2ccc(C(=O)c3ccccc3)cc2nc1O"
endpointresult = "> 100 µM (inactive)"

[[record]]
molecule = "Cc1c(-c2ccccc2)[nH]c2cn[nH]c(=O)c12"
endpointresult = "90.8 µM (inactive)"

[[record]]
molecule = "C/C=C/CC(C(=O)OCC)(N(C)C(=O)OC(C)(C)C)S(=O)(=O)c1ccc(C)cc1 (stereo not given)"
endpointresult = "51.6 µM (inactive)"

[[record]]
molecule = "CC(C)(CC1(C)NC(=O)NC1=O)OCc1ccccc1 (stereo not given)"
endpointresult = "> 100 µM (inactive)"

[[record]]
molecule = "O=C(O)C1C2OC(C(Br)C2Br)C1C(=O)O (stereo not given)"
endpointresult = "> 100 µM (inactive)"


----------
# Test system: SK-MEL-2
# protocolSummary: NCI tumour cell line growth inhibition, 48 h
Active and inactive are the calls of the source. Rule as the data show it: active = GI50 up to about 1.1 µM and inactive = higher.
observedProperty: GI50

[[record]]
molecule = "CN(CC(=O)N1CC(CCl)c2ccc([N+](=O)[O-])cc21)CC(=O)N1CC(CCl)c2ccc([N+](=O)[O-])cc21 (centres undefined)"
observedproperty = "GI50"
endpointresult = "97.9 µM (inactive)"

[[record]]
molecule = "COc1ccc(/C=C/COC(C)=O)cc1OC"
observedproperty = "GI50"
endpointresult = "> 100 µM (inactive)"

[[record]]
molecule = "COc1cc(C2SCC(=O)N2c2ccc(NC(=O)c3ccc(N4C(=O)CSC4c4cc(OC)c(OC)c(OC)c4)cc3)cc2)cc(OC)c1OC (centres undefined)"
observedproperty = "GI50"
endpointresult = "91.6 µM (inactive)"

[[record]]
molecule = "CSc1cc(N)ccc1/N=N/c1ccc(S(N)(=O)=O)cc1"
observedproperty = "GI50"
endpointresult = "24.2 µM (inactive)"

[[record]]
molecule = "CN(C)c1ccc(/C=C2\\N=C(c3ccccc3)N(c3nc4ccc(Sc5ccccc5)cc4[nH]3)C2=O)cc1"
observedproperty = "GI50"
endpointresult = "20.8 µM (inactive)"

[[record]]
molecule = "O=C(/C=C/c1ccc2c(c1)OCO2)Cc1nc2ncccc2[nH]c1=O"
observedproperty = "GI50"
endpointresult = "> 100 µM (inactive)"

[[record]]
molecule = "OC(c1nc2ccccc2s1)(C(F)(F)F)C(F)(F)F"
observedproperty = "GI50"
endpointresult = "> 100 µM (inactive)"

[[record]]
molecule = "Nc1ccc(-c2cssc2=S)cc1"
observedproperty = "GI50"
endpointresult = "27.1 µM (inactive)"

[[record]]
molecule = "CC1=C(C(=O)NNC(=O)C(N)=O)CC(C(=O)NNC(=O)C(N)=O)=C(C)N1"
observedproperty = "GI50"
endpointresult = "> 100 µM (inactive)"

[[record]]
molecule = "O=C(c1ccc(O)cc1O)C1C(c2ccc(O)cc2)OC(c2ccc(O)cc2)C1C(=O)c1ccc(O)cc1O (centres undefined)"
observedproperty = "GI50"
endpointresult = "22 µM (inactive)"

[[record]]
molecule = "COc1ccc(C2C(Cl)C(=O)N2NC(=O)c2ccc(N)cc2)cc1 (centres undefined)"
observedproperty = "GI50"
endpointresult = "> 100 µM (inactive)"

[[record]]
molecule = "C#CCn1c(=O)ccn(/C(=C/C(=O)OCC)C(=O)OCC)c1=O"
observedproperty = "GI50"
endpointresult = "15.2 µM (inactive)"

[[record]]
molecule = "O=S(=O)(N=S(c1ccc(Cl)cc1)c1ccc(Cl)cc1)c1ccccc1"
observedproperty = "GI50"
endpointresult = "> 100 µM (inactive)"

[[record]]
molecule = "CC(C)(C)NC(=O)[C@H]1CC[C@H]2[C@@H]3CC=C4NC(=O)CC[C@]4(C)[C@H]3CC[C@]12C"
observedproperty = "GI50"
endpointresult = "> 100 µM (inactive)"

